# target system: mouse DLL3 on CHO-K1-mDLL3 cells (mouse) (UniProt O88516)
# Sequence (O88516 other isoform, or with tags, fused parts or gaps limits assumed): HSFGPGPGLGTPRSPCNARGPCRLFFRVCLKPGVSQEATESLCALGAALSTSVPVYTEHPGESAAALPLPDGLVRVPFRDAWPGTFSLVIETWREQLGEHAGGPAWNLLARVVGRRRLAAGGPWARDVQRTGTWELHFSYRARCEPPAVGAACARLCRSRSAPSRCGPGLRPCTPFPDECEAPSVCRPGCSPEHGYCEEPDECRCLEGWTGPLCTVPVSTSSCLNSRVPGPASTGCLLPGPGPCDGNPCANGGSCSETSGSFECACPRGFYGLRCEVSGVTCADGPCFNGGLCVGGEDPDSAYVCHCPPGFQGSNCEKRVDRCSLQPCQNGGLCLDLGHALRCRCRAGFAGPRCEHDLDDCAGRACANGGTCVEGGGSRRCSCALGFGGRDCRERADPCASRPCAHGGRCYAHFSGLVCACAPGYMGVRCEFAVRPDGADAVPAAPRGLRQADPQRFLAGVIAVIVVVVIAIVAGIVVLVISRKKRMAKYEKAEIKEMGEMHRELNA
# measurement notes: FACS, CHO-K1-mDLL3 cells, 0.16 nM antibody
Reported MFI is given for each of the following binders.

# binder, MFI
rows = [
    ("Hab015VL5VH1b-hFc (scFv, part only; not given: VL-VH linker and human IgG1 Fc, V domains shown, not shown: another chain or arm of the molecule; a dimerising Fc or GST; small tags and cut ends) VL: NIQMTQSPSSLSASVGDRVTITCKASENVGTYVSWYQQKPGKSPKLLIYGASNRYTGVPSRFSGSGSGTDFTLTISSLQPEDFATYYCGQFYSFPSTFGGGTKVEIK VH: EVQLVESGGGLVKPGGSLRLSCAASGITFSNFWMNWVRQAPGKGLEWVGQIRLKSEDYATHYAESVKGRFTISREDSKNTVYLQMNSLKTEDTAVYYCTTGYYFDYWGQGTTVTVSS", "361 MFI"),
    ("Hab015VL5VH6a-hFc (scFv, part only; not given: scFv linker and human IgG1 Fc, V domains shown, not shown: another chain or arm of the molecule; a dimerising Fc or GST; small tags and cut ends) VL: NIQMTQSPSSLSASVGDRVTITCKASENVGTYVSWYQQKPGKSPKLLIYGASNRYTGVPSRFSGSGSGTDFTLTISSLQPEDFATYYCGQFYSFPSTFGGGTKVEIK VH: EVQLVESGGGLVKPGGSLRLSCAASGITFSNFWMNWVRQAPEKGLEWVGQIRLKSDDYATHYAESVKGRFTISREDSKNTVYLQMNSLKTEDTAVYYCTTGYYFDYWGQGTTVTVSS", "390 MFI"),
    ("Hab006VL4VH2-hFc (scFv, part only; not given: scFv linker and human IgG1 Fc, V domains shown, not shown: another chain or arm of the molecule; a dimerising Fc or GST; small tags and cut ends) VL: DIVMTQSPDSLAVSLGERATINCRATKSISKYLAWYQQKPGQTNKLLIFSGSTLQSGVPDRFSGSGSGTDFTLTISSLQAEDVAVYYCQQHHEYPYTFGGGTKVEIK VH: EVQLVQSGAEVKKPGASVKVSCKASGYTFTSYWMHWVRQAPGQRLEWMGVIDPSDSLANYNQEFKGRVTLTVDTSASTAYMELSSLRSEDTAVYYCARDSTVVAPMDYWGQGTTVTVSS", "343 MFI"),
    ("Hab014VL3VH1-hFc (scFv, part only; not given: VL-VH linker and human IgG1 Fc, V domains shown, not shown: another chain or arm of the molecule; a dimerising Fc or GST; small tags and cut ends) VL: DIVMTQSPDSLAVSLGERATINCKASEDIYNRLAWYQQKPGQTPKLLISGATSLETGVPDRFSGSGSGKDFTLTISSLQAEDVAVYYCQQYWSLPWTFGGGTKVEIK VH: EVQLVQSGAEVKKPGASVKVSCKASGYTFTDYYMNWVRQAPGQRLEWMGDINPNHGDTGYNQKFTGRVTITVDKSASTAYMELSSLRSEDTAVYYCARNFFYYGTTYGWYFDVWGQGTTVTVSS", "192 MFI"),
    ("Hab009VL1aVH1-hFc (scFv, part only; not given: scFv linker and human IgG1 Fc, V domains shown, not shown: another chain or arm of the molecule; a dimerising Fc or GST; small tags and cut ends) VL: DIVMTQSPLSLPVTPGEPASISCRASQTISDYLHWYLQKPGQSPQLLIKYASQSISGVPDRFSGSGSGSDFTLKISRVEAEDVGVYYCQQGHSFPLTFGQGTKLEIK VH: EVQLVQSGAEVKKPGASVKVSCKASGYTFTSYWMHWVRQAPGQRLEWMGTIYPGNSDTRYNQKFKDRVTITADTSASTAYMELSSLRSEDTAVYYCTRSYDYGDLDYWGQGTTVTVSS", "258 MFI"),
]
